Ref: ChEMBL document CHEMBL5385868

- protocol summary: Cytotoxicity against RML infected mouse ScGT1 cells assessed as reduction in cell viability at 0.1 uM measured after 5 days by MTT assay relative to control
- Assay type: toxicity, cell-based
- condition description: scgt1, 120 h, time 5 day
Give measured Cell viability relative to control for each item. Keep answers brief.
State just the number; it will be interpreted in %.

Dear colleague, I am looking for the recorded Cell viability relative to control of the following compound: `CN(C)CC(=O)Nc1ccc2[nH]c3ccc(NC(=O)CN(C)C)cc3c2c1`
111

Dear colleague, I am looking for the recorded Cell viability relative to control of the following compound: `O=C(CN1CCOCC1)Nc1ccc2[nH]c3ccc(NC(=O)CN4CCOCC4)cc3c2c1`
101

For the compound shown here, `O=C(CN1CCCC1)Nc1ccc2[nH]c3ccccc3c2c1` , give the reported Cell viability relative to control.
83

Cell viability relative to control for `O=C(CN1CCCC1)Nc1ccc(Cc2ccc(NC(=O)CN3CCCC3)cc2)cc1` ?
85

Entry under review: `CCN(CC)CC(=O)Nc1ccc2[nH]c3ccc(NC(=O)CN(CC)CC)cc3c2c1` . Reported Cell viability relative to control?
108

Field request: Cell viability relative to control | item: `O=C(CN1CCN(c2ccccc2)CC1)Nc1ccc2[nH]c3ccc(NC(=O)CN4CCN(c5ccccc5)CC4)cc3c2c1`
71

Would you mind telling me what Cell viability relative to control value was observed for `O=C(CN1CCCCC1)Nc1ccc2[nH]c3ccc(NC(=O)CN4CCCCC4)cc3c2c1` ?
81

Look up Cell viability relative to control for this compound: `CN1CCN(CC(=O)Nc2ccc3[nH]c4ccc(NC(=O)CN5CCN(C)CC5)cc4c3c2)CC1`
99

Consider the compound `CC(C)N(CC(=O)Nc1ccc2[nH]c3ccc(NC(=O)CN(C(C)C)C(C)C)cc3c2c1)C(C)C` and give its measured Cell viability relative to control.
92

Tell me the measured Cell viability relative to control of `O=C(CN1CCCC1)Nc1ccc2[nH]c3ccc(NC(=O)CN4CCCC4)cc3c2c1` , please.
118

Name the recorded Cell viability relative to control for `O=C(Cn1ccnc1)Nc1ccc2[nH]c3ccc(NC(=O)Cn4ccnc4)cc3c2c1` .
100

###

- protocol summary: Cytotoxicity against RML infected mouse ScGT1 cells assessed as reduction in cell viability at 1 uM measured after 5 days by MTT assay relative to control
- Type: toxicity, cell-based
- condition description: scgt1, 120 h, time 5 day
Could you mark each record yes if its Cell viability (% of control) falls strictly under 80%, and no if it equals or exceeds it?

Threshold test, Cell viability (% of control) < 80%: `O=C(CN1CCOCC1)Nc1ccc2[nH]c3ccc(NC(=O)CN4CCOCC4)cc3c2c1`
no

hey, is Cell viability (% of control) for `O=C(CN1CCCC1)Nc1ccc(Cc2ccc(NC(=O)CN3CCCC3)cc2)cc1` lower than 80% or not?
yes

Does this molecule meet the criterion Cell viability (% of control) < 80%? `O=C(CN1CCCCC1)Nc1ccc2[nH]c3ccc(NC(=O)CN4CCCCC4)cc3c2c1`
yes

Answer whether the molecule `O=C(Cn1ccnc1)Nc1ccc2[nH]c3ccc(NC(=O)Cn4ccnc4)cc3c2c1` has Cell viability (% of control) strictly less than 80%
no

Would you kindly verify if Cell viability (% of control) of `CC(C)N(CC(=O)Nc1ccc2[nH]c3ccc(NC(=O)CN(C(C)C)C(C)C)cc3c2c1)C(C)C` is strictly less than 80%?
yes

Does this molecule meet the criterion Cell viability (% of control) < 80%? `CCN(CC)CC(=O)Nc1ccc2[nH]c3ccc(NC(=O)CN(CC)CC)cc3c2c1`
no

For `CN(C)CC(=O)Nc1ccc2[nH]c3ccc(NC(=O)CN(C)C)cc3c2c1` , is the recorded Cell viability (% of control) below the cut-off of 80%?
no

Report whether reported Cell viability (% of control) is lower than 80% (strictly) for `O=C(CN1CCCC1)Nc1ccc2[nH]c3ccc(NC(=O)CN4CCCC4)cc3c2c1`
no

Hello, is Cell viability (% of control) of the following molecule strictly smaller than 80%? `O=C(CN1CCN(c2ccccc2)CC1)Nc1ccc2[nH]c3ccc(NC(=O)CN4CCN(c5ccccc5)CC4)cc3c2c1`
yes
